Test system: MALME-3M melanoma
measurementProtocol: NCI-60 one-dose screen, 48 h
experimentalSetup: 10 µM unless noted
The panel holds about 83,000 compounds, 20% with a hit somewhere; the sample as a whole holds those more often. Calls of active or inactive are those of the source. Rule for the calls: active = growth percent below 10; inactive = the rest.
Respond with a class label; see active, inactive

// return assay outcome for CC(=O)O[C@]1(C)C[C@H](O)[C@]2(O)C=CO[C@H](O[C@@H]3O[C@H](CO)[C@@H](O)[C@H](O)[C@H]3O)[C@@H]21 inactive

// return assay outcome for Cc1nc2cc(-c3nn(C(C)C)c4ncnc(N)c34)ccc2o1 active

// return assay outcome for O=C(CNc1nc2ccccc2s1)Nc1ccc(-c2nc3ccccc3s2)cc1 inactive

// return assay outcome for COc1ccc2c(CCCCC(c3ccccc3)c3ccccc3)c3[n+](cc2c1OC)CCc1cc2c(cc1-3)OCO2 active

// return assay outcome for CCNC(=O)Nc1nc2ccc(Oc3ccnc(C(=O)NC)c3)cc2s1 inactive

// return assay outcome for CCCCn1c(C)nc2cc(Nc3nc(N4CCCCC4)nc4nc[nH]c34)ccc21 inactive

// return assay outcome for Cc1cc(Nc2ncc(Cl)c(Nc3ccccc3S(=O)(=O)C(C)C)n2)c(OC(C)C)cc1C1CCNCC1 active

// return assay outcome for CC(N)C(Cc1ccc(Cl)cc1)c1ccc(Cl)cc1 (stereo not given) inactive

// return assay outcome for COc1cc(N2CCC(N(C)C)CC2)ccc1Nc1ncc(Cl)c(Nc2ccccc2P(C)(C)=O)n1 inactive

// return assay outcome for C#Cc1cccc(Nc2ncnc3cc4c(cc23)OCCOCCOCCO4)c1 inactive

// return assay outcome for COCc1c(-c2ccc(NC(=O)Nc3cc(C(F)(F)F)ccc3F)c(F)c2)c2c(N)ncnn2c1CN1CCOCC1 active

// return assay outcome for COC(=O)[C@]12CC[C@@H](C)[C@H](C)[C@@H]1C1=CC[C@@H]3[C@@]4(C)C[C@@H](OC(=O)/C=C/c5ccccc5)[C@H](O)[C@@](C)(CO)[C@@H]4[C@H](O)C[C@@]3(C)[C@]1(C)CC2 active

// return assay outcome for Clc1ccc(/C=C/c2cc(N3CCOCC3)c3cc(Cl)c(Cl)cc3n2)cc1 inactive

// return assay outcome for C[C@@H](N)c1ccc(C(=O)Nc2ccnc3[nH]ccc23)cc1 inactive

// return assay outcome for Cc1nn(-c2nc3ccccc3[nH]2)c2c1C(c1ccc(OCc3ccc(F)cc3)cc1)CC(=O)N2 (stereo not given) inactive

// return assay outcome for Cc1cc(-c2cc(O)ccc2Cl)cc2nnc(Nc3ccc(OCCN4CCCC4)cc3)nc12 active

// return assay outcome for COc1ccc(-c2cc3c(oc2=O)-c2ccccc2OC3OC(C)=O)cc1 (stereo not given) inactive

// return assay outcome for Nc1ncnc2c1ccn2-c1cccc(NC(=O)c2ccc(N3CCOCC3)c(C(F)(F)F)c2)c1 inactive

// return assay outcome for C=CC(=O)Nc1cccc(Nc2nc(Nc3ccc(N4CCN(C(C)=O)CC4)cc3OC)ncc2C(F)(F)F)c1 inactive

// return assay outcome for FC(F)c1nc2ccccc2n1-c1nc(N2CCOCC2)nc(N2CCOCC2)n1 active

// return assay outcome for CO[C@H]1C[C@@H]2CC[C@@H](C)[C@@](O)(O2)C(=O)C(=O)N2CCCC[C@H]2C(=O)O[C@H]([C@H](C)C[C@@H]2CC[C@@H](OC(=O)C(C)(CO)CO)[C@H](OC)C2)CC(=O)[C@H](C)/C=C(\C)[C@@H](O)[C@@H](OC)C(=O)[C@H](C)C[C@H](C)\C=C/C=C/C=C/1C inactive

// return assay outcome for COC(=O)[C@]12CC[C@@H](C)[C@H](C)[C@@H]1C1=CC[C@@H]3[C@@]4(C)C(C=O)=C[C@@](C)(COS(C)(=O)=O)C4=CC[C@@]3(C)[C@]1(C)CC2 active

// return assay outcome for CS(=O)(=O)N1CCN(Cc2cc3nc(-c4cccc5[nH]ncc45)nc(N4CCOCC4)c3s2)CC1 active

// return assay outcome for COc1cc2nc(Nc3cccc(Cl)c3)nc(N)c2cc1OC inactive

// return assay outcome for N[C@@H]1CCCN(c2c(/C=C3\SC(=O)NC3=O)cccc2-c2ccccc2)C1 inactive
